target: dopamine D-2 receptor (Rattus norvegicus, UniProt P61169); construct: homogenized limbic brain tissue is incubated with ^3H-spiroperidol; from tissue; test: 3H-spiroperidol binding, affinity for the dopamine D-2 receptor in homogenized limbic brain tissue; details: ratio IC50 D2 Spiper / IC50 D2 Quin. (LowAg/HighAg), predicts intrinsic activity
Sequence (P61169 whole entry): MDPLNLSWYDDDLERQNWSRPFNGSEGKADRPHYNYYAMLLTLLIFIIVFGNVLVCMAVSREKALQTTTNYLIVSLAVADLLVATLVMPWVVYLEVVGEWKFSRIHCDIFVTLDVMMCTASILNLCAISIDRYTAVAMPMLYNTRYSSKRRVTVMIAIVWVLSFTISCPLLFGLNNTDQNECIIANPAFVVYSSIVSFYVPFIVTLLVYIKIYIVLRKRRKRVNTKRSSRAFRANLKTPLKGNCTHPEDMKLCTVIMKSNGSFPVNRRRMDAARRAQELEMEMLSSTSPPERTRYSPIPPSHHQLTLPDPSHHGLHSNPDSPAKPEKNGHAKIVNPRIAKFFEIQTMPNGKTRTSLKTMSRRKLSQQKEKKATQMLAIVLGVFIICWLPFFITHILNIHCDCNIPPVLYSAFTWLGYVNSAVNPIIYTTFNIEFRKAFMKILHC
propertyName: Ratio
API doc: respond with a numeric literal and nothing else, no unit.

Worked examples, 4 molecules total:
CSC1C(=O)Nc2c(F)ccc(OCCNCc3ccsc3)c21 (centres unmarked) ... 91
O=C1Cc2c(OCCNCc3cccs3)ccc(Cl)c2N1 ... 30.5
O=C1Cc2c(OCCNCc3cccs3)ccc(F)c2N1 ... 293
O=C1Cc2c(OCCNCc3ccsc3)ccc(F)c2N1 ... 128

Okay, now this molecule:
Query: Item "O=C1Cc2c(OCCNCc3ccsc3)ccc(Cl)c2N1" : provide Ratio
Result: 37.7
